- Study System: human wild type STING (WT STING) (Homo sapiens, UniProt Q86WV6, H232R)
- Construct: host or cells: 293T cells (ATCC CRL-3216), stably double transfected with pUNO1-hSTING-WT and pGL64.27-4×ISRE
- Sequence (Q86WV6 whole entry H232R): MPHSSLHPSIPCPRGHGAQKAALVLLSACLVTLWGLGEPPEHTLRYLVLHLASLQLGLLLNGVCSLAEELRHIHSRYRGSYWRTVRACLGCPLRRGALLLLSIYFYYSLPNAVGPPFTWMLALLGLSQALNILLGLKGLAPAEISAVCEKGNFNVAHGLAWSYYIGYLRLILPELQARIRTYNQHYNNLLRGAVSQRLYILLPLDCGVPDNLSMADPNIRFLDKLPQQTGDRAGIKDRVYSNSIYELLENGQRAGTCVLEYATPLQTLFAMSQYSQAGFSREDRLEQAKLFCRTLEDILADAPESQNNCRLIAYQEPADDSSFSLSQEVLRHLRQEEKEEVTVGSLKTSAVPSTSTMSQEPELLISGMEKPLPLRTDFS
- Measurement Protocol: 293T WT STING standard reporter assay
- Type: cell-based
- Particulars: 293T wtSTING-FL cells, no digitonin, 7 hours; ISRE firefly luciferase; read-out: 293T WT STING EC50
Entries and their pEC50 values follow.
Would you please state pEC50, meaning minus log10 of the concentration in mol/L, as a bare number?

Compound	Study System	Outcome Measure	Recorded Number
Nc1ncnc2c1ncn2[C@@H]1O[C@@H]2COP(=O)(S)O[C@H]3[C@@H](F)[C@H](n4cnc5c(N)ncnc54)O[C@@H]3COP(=O)(S)CO[C@H]2[C@H]1F (single isomer, unassigned) [Compound 14b]	human wild type STING (WT STING) (Homo sapiens, UniProt Q86WV6, H232R)	pEC50	6.70
Nc1ncnc2c1ncn2[C@@H]1O[C@@H]2COP(=O)(S)O[C@H]3[C@@H](F)[C@H](n4cnc5c(N)ncnc54)O[C@@H]3COP(=O)(O)CO[C@H]2[C@H]1F (single isomer, unassigned) [Compound 11a]	human wild type STING (WT STING) (Homo sapiens, UniProt Q86WV6, H232R)	pEC50	5.35
Nc1ncnc2c1ncn2[C@@H]1O[C@@H]2COP(=O)(S)O[C@H]3[C@@H](F)[C@H](n4cnc5c(N)ncnc54)O[C@@H]3COP(=O)(O)CO[C@H]2[C@H]1F (single isomer, unassigned) [Compound 11b]	human wild type STING (WT STING) (Homo sapiens, UniProt Q86WV6, H232R)	pEC50	5.85

Proceeding to the next compound to report its pEC50.
INPUT: Entry under review: CC(C)OC(=O)OCOP1(=O)CO[C@H]2[C@@H](F)[C@H](n3cnc4c(N)ncnc43)O[C@@H]2COP(=O)(OCOC(=O)OC(C)C)O[C@H]2[C@@H](F)[C@H](n3cnc4c(N)ncnc43)O[C@@H]2CO1 (single isomer, unassigned) [Compound 42c] . Reported pEC50?
OUTPUT: 7.30
